Biological target: T1, human PD-1 on cells (293T cells transfected with human PD-1) (human, UniProt Q15116 25-288)
T1 construct: whole, on cells; Also used as the target for the functional rows, where PD-1 stands on human T cells
T1 sequence (Q15116 25-288): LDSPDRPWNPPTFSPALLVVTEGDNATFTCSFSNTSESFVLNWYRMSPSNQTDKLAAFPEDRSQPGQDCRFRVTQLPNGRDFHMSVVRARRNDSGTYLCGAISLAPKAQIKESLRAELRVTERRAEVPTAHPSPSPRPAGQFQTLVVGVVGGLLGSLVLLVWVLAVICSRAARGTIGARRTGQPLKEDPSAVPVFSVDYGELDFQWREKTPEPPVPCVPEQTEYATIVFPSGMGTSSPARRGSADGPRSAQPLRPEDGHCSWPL
Assay: FACS blockage on hPD-1-293T cells, competitor biotin PD-L1
Measured Endpoint: IC50 (µg/mL)
One number for each entry, in µg/mL.

Binder	Units Text	Obs Value
22A5 murine anti-PD-1 antibody (antibody, V domains shown, Purified hybridoma antibody; also called 22A5-mIgG1) VH: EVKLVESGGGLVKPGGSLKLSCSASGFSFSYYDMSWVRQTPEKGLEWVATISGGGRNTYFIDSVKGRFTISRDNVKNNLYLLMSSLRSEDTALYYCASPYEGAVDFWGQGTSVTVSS VL: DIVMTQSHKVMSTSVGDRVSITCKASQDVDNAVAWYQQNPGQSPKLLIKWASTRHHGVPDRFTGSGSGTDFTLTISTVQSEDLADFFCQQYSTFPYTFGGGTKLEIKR	µg/mL	0.0562

Turning to the following binder.
Query :: For 7A4 murine anti-PD-1 antibody (antibody, V domains shown, Purified hybridoma antibody; also called 7A4-mIgG1) VH: QIHLVQSGPELKKPGETVKISCKASGYTFTNFGMNWVKQAPGKGLKWMGWISGYTREPTYAADFKGRFAISLETSASTAYLQINDLKNEDMATYFCARDVFDYWGQGTTLTVSS VL: DIVLTQSPASLAVSLGQRATISCRASESVDNYGYSFMNWFQQKPGQPPKLLIYRASNLESGIPARFSGSGSRTNFTLTINPVEADDVATYFCQQSNADPTFGGGTNLEIKR , what is its reported IC50?
Result :: 0.0289
